# TEST_TARGET: T1, RAD51 (wild-type human RAD51 DNA strand exchange protein) (human, UniProt Q06609 1-339)
# T1 sequence: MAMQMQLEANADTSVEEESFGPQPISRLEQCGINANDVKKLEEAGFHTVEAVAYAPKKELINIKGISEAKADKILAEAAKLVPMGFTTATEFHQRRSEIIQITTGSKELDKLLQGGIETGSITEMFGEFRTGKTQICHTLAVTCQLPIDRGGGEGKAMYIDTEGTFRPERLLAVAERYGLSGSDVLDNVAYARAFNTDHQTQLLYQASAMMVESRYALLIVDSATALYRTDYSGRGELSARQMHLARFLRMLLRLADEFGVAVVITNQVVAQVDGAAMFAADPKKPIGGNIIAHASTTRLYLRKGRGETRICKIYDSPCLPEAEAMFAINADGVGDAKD
# METHOD_NOTES: fluorescence polarisation
ENDPOINT_LABEL: Kd
The reply should read as a number followed by its unit.

Enquiry: Which Kd is reported for this binder? KEPTLLGFHTASGKKVKIAKESLDKVKNLFDEKEQ (FITC (fluorescein) on the N-terminus, as printed: FITC-KEPT...) [FITC-BRC4 peptide (BRC4 repeat of BRCA2)]
Return: 34 nM
